# assayed_system: T1, recombinant mouse MAdCAM-1 (mouse, UniProt Q61826 22-365, limits assumed)
# T1 construct: also called mMAdCAM-1; mouse MAdCAM-Fc
# T1 sequence (looked up): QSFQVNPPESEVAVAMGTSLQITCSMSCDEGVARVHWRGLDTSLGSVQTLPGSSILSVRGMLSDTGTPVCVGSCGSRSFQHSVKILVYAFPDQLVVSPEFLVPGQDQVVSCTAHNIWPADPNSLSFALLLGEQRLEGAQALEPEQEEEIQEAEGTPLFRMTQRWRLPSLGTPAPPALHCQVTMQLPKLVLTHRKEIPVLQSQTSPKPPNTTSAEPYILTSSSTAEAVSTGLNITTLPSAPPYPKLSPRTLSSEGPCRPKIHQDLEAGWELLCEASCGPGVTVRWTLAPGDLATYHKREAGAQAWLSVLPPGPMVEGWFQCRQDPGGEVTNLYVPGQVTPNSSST
# measurement_description: Octet
readout_name: binding result

1) MAdCAM Antibody Table 2 Clone 65 (antibody, human IgG1, V domains shown) VH: QVQLVQSGAEVKKPGASVKVSCKASGYTFTSYDINWVRQAPGQGLEWMGWMNPNSGNTGYAQKFQGRVTMTRDTSTSTVYMELSSLRSEDTAVYYCAKDSDYSNLLWDYWGQGTLVTVSS VL: DIQMTQSPSSLSASVGDRVTITCRASQDITNDLGWYQQKPGKAPKLLIYQASSLESGVPSRFSGSGSGTDFTLTISSLQPEDFATYYCQQSYTIPLTFGQGTKVEIK = no binding
2) MAdCAM Antibody Table 2 Clone 74 (antibody, human IgG1, V domains shown) VH: QVQLVQSGAEVKKPGASVKVSCKASGYTFTGYYMHWVRQAPGQGLEWMGIINPSGGNTKYAQKFQGRVTMTRDTSTSTVYMELSSLRSEDTAVYYCTTADYYYYMDVWGKGTTVTVSS VL: DIQMTQSPSSLSASVGDRVTITCRASQGISNYLAWYQQKPGKAPKLLIYAASSLQSGVPSRFSGSGSGTDFTLTISSLQPEDFATYYCQQYYSNADFGQGTKVEIK = no binding
3) MAdCAM Antibody Table 2 Clone 20 (antibody, human IgG1, V domains shown) VH: EVQLLESGGGLVQPGGSLRLSCAASGFTFSDSAMHWVRQAPGKGLEWVSAISGSGSTIYYADSVKGRFTISRDNSKNTLYLQMNSLRAEDTAVYYCVSDIAVAGHWYFDLWGRGTLVTVSS VL: DIQMTQSPSSLSASVGDRVTITCRASQSISTFLNWYQQKPGKAPKLLIYAASRLEGGVPSRFSGSGSGTDFTLTISSLQPEDFATYYCQQANSFPLTFGPGTKVDIK = no binding

Provenance of the data: patent US20210206856A1
